The reported measurements were obtained from patent US20050013808A1.

Please provide measured Score for the entries that follow.
- Test system: UT5600 cells (NTR−) lysogens
- PROTOCOL_TEXT: Replica-plate screening of mutant NTR-expressing lysogens on increasing CB1954 (growth score)
- Type: cell-based, E. coli
- Design: key: 0: Good growth on all concentrations of CB 1954 = vector; Good growth on 100 and 200, faint on 300, ring of growth on 400 μM; Good growth on 100 and 200, ring growth on 300, none or very faint on 400 μM; Good growth on 100, faint to good on 200, none or very faint on 300 and 400 μM; 4: Good growth on 100 μM, none to ring growth on 200 μM = wild type; Good growth on 50 μM, ring on 100 μM, none on 200, 300 or 400 μM; 6: Faint growth on 50 μM, ring on 100 μM; 7: Good growth on 50 μM, none on 100 μM; 8: Ring growth on 50 μM, none on 100 μM; 9: None or very faint growth on 50 μM, none on 100 μM; 10: None or ring growth on 35 μM
- PARTICULARS: growth of lysogens on agar with kanamycin, IPTG and 0-400 μM CB1954; wild type = 4, higher = more sensitive
- Method: The ligation mix was packaged (Stratagene) into lambda bacteriophage particles that were used to infect UT5600 cells (NTR ^−). As a control wild type NTR was also cloned into this vector (JG16C2). Kanamycin resistant lysogens were selected on agar plates ([…] kanamycin) then individually grown overnight in a well of a 96-well plate in LB+Kanamycin. […]
Answer using only a numeral; do not append any unit.

**Query** Returns the measured Score for the input molecule. Input: Y68G F124Q (protein) MDIISVALKRHSTKAFDASKKLTPEQAEQIKTLLQYSPSSTNSQPWHFIVASTEEGKARVAKSAAGNGVFNERKMLDASHVVVFCAKTAMDDVWLKLVVDQEDADGRFATPEAKAANDKGRKFQADMHRKDLHDDAEWMAKQVYLNVGNFLLGVAALGLDAVPIEGFDAAILDAEFGLKEKGYTSLVVVPVGHHSVEDFNATLPKSRLPQNITLTEV
**Result** 4

**Query** Returns the measured Score for the input molecule. Input: N71S F124K: NTR double mutant, asparagine 71 to serine combined with phenylalanine 124 to lysine (protein) MDIISVALKRHSTKAFDASKKLTPEQAEQIKTLLQYSPSSTNSQPWHFIVASTEEGKARVAKSAAGNYVFSERKMLDASHVVVFCAKTAMDDVWLKLVVDQEDADGRFATPEAKAANDKGRKFKADMHRKDLHDDAEWMAKQVYLNVGNFLLGVAALGLDAVPIEGFDAAILDAEFGLKEKGYTSLVVVPVGHHSVEDFNATLPKSRLPQNITLTEV
**Result** 9

**Query** Returns the measured Score for the input molecule. Input: S40G (protein) MDIISVALKRHSTKAFDASKKLTPEQAEQIKTLLQYSPSGTNSQPWHFIVASTEEGKARVAKSAAGNYVFNERKMLDASHVVVFCAKTAMDDVWLKLVVDQEDADGRFATPEAKAANDKGRKFFADMHRKDLHDDAEWMAKQVYLNVGNFLLGVAALGLDAVPIEGFDAAILDAEFGLKEKGYTSLVVVPVGHHSVEDFNATLPKSRLPQNITLTEV
**Result** 5
